# measured_on: UGT2B4 (Homo sapiens, UniProt P06133)
# Sequence (P06133 24-528): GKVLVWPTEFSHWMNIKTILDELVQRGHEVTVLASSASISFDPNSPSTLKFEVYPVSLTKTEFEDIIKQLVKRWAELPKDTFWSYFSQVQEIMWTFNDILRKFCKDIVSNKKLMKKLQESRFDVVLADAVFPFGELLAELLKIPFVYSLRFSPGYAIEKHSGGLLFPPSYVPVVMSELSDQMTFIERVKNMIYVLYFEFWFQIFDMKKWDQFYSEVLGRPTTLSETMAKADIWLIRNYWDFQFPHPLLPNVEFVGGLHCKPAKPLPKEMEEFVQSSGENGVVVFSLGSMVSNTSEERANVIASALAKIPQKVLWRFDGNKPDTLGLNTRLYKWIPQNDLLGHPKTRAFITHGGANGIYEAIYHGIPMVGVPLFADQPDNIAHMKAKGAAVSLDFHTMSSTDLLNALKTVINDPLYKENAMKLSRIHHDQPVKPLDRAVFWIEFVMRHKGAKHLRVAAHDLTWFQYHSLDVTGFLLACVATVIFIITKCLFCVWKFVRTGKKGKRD
# assay_summary: 4-MU glucuronidation, UPLC-UV, Lineweaver-Burk slope replot
# Type: biochemical
# experimental_context: competitive; 4-MU varied, UDPGA 5 mM, MgCl2 5 mM, Tris-HCl pH 7.4, 37 °C
measurement_kind: Ki

# input compound: `C=CCOC(=O)c1ccccc1C(=O)OCC=C` ; wanted: its Ki
6.73 µM
